system: Glutamate NMDA receptor
experiment_notes: In vitro compound's ability to displace [3H]-CGS-19,755 binding as a measure of its affinity for the glutamate recognition site on the NMDA receptor complex.
Type: protein-complex assay
attribute_measured: IC50

[Q] Fill in the blank: the reported IC50 of CN1CCC2(CCCC(CP(=O)(O)O)C2)CC1C(=O)O (stereo unspecified) is ____.
[A] > 10 µM

###

experiment_notes: In vitro inhibition of 40 uM NMDA induced depolarization in rat cortical slices.
attribute_measured: IC50 (µM)
Just the number in µM, nothing appended.

Reference set (6 entries):
[Q] Fill in the blank: the reported IC50 of O=C(O)C1NCCC2CC(Cc3nnn[nH]3)CCC21 (stereo unspecified) is ____.
[A] 7.8

[Q] Fill in the blank: the reported IC50 of O=C(O)C1Cc2cc(Cc3nnn[nH]3)ccc2CN1 (stereo unspecified) is ____.
[A] 36.6

[Q] Fill in the blank: the reported IC50 of "O=C(O)[C@@H]1C[C@H](CP(=O)(O)O)CCN1" is ____.
[A] 1.6

[Q] Fill in the blank: the reported IC50 of O=C(O)C1CC2C[C@@H](Cc3nnn[nH]3)CCC2CN1 (stereo in doubt; 32b) is ____.
[A] 4.8

[Q] Fill in the blank: the reported IC50 of O=C(O)C1Cc2cc(CP(=O)(O)O)ccc2CN1 (stereo unspecified) is ____.
[A] 34.4

[Q] Fill in the blank: the reported IC50 of "O=C(O)[C@H]1C[C@@H](Cc2nnn[nH]2)CCN1" is ____.
[A] 4.2

Next:
[Q] Fill in the blank: the reported IC50 of O=C(O)C1CC2C[C@@H](Cc3nnn[nH]3)CCC2CN1 (stereo in doubt; 32a) is ____.
[A] 1.39
